List of exon inclusion enrichment index values.
B1: mRNA-splicing (parent)
chain: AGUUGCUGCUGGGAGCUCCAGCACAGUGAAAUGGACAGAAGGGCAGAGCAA

# Variants of: B1
# Measurement Protocol: exon inclusion enrichment index; higher = more inclusion; WT1 exon 5 minigene, HEK293
Give only the figure.

>  <Polymer Sequence>
AGUUACCACCGGGAGCUCCAGCACAGUGAAAUGGACAGAAGGGCAACGCAA

>  <exon inclusion enrichment index>
3.08

$$$$
>  <Polymer Sequence>
AGUUCGCGCUAGGAGCUCCAGCACAGUGAAAUGGACAGAAGGGCAGAGCAA

>  <exon inclusion enrichment index>
0.993

$$$$

Lab note: measured exon inclusion enrichment index of AGUUGCUGCUGGGAGCUCCAGCGCAGUGAAAUGGACAGAAGGGCAGAGCAA was 0.414

Lab note: measured exon inclusion enrichment index of AGUUCGCGCCGGGAGCUCCAGCACAGUGAGUUGGACAGAAGGGCAGAGCAA was 1.7

Lab note: measured exon inclusion enrichment index of AGUUGACGACGGGAGCUCCAGCACAGUGAACCGGACAGAAGGGCAGAGCAA was 4.42

Lab note: measured exon inclusion enrichment index of AGUUGAGUAAGGGAGCUCCAGCACAGUGAAAUGGACAGAAGGGCAGAGCAA was 0.0118

Lab note: measured exon inclusion enrichment index of AGUUGACGACGGGAGCUCCAGCACAGGGAAAUGGACAGAAGGGCAGAGCAA was 2.01

Lab note: measured exon inclusion enrichment index of AGUAUUAUAUGGGAGCUCCAGCACAGUGAAAUGGACAGAAGGGCAGAGCAA was 0.0503

Lab note: measured exon inclusion enrichment index of AGUUGACGACGGGAGCUCCAGCACAGUGAAAUGGACAGAGUGGCAGAGCAA was 2.58
